Tested on: bile secretion
Protocol text: Cholagogic action, bile secretion (Experimental Example 5); also: test concentration or dose not given here
Type: in vivo, male Wistar rats
Settings: 2-3 hour after dose, intraduodenal; control 55.8; Table 9
Measured parameter: Bile secretion amount, percentage of the hour before dose (%)
The answer is to be given in %; state only the numeric part.

Field: example entries. Status: answers known.
>  <Compound>
OCC1=CC[C@@H]2C(CO)=CO[C@@H](OC3CCCCO3)[C@H]12 (stereo partly shown)

>  <Meas value>
60.3

$$$$
>  <Compound>
COC(=O)C1=CO[C@@H](O[C@@H]2O[C@H](CO)[C@@H](O)[C@H](O)[C@H]2O)[C@@H]2C(C)=CC[C@H]12

>  <Meas value>
60.1

$$$$
>  <Compound>
COC(=O)C1=COC(=O)[C@H]2[C@@H]1CC[C@@H]2C

>  <Meas value>
62.0

$$$$

Then there is this compound:
Q: Entry `COC(=O)C1=COC(=O)[C@@H]2C(CO)=CC[C@H]12` has what Bile secretion amount, percentage of the hour before dose?
Result: 55.1
